Measured pIC50 accompanies every entry in the list below.
ASSAYED SYSTEM: AKT (Homo sapiens)
Construct: Kinases are expressed as either kinase domains or full length constructs; made in house
Sequence (Q9Y243 whole entry, the tested form may be a part): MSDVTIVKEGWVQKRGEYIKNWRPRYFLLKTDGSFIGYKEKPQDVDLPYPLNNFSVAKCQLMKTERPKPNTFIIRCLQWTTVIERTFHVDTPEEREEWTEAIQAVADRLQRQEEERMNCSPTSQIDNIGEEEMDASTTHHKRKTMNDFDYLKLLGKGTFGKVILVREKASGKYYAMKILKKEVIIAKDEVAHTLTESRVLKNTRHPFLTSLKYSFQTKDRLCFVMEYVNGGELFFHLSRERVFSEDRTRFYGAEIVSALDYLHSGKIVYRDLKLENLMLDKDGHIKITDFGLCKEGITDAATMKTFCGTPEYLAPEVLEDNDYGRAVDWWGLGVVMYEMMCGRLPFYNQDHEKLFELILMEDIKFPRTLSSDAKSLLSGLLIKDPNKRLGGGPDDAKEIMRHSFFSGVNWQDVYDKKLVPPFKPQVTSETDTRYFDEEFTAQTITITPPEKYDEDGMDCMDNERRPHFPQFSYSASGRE
TEST NAME: Kinase inhibition assay (33P transfer), AKT
Format: biochemical
CONDITIONS USED: Table 2, kinase inhibition class; read-out: AKT3-1
pIC50: −log10 of the molar value.

The following compounds have reported results that may help.
COc1cc2ccn(-c3ncnc(Nc4cc(OC)c(OC)c(OC)c4)n3)c2cc1OC [Compound 239] : < 4.99
CC(C)(C)OC(=O)NCCCNc1ncnc(-c2ccccc2)n1 [Compound 17] : < 4.86
COc1cc(Nc2ncnc(-n3c(NCc4ccc(C(F)(F)F)cc4)nc4ccccc43)n2)cc(OC)c1OC [Compound 598] : < 5.09
Cc1ccc2c(c1)CCCN2c1ncnc(Nc2cccc(-c3cnco3)c2)n1 [Compound 774] : 5.20 to 5.98

Short answer for Nc1nc2ccccc2n1-c1ncnc(Nc2ccc(N3CCOCC3)cc2)n1 [Compound 479] : pIC50 was < 4.94

Short answer for CCOc1ccc(Nc2ncnc(Nc3ccc(C)c(O)c3)n2)cc1OCC [Compound 121] : pIC50 was < 4.93

Short answer for O=c1[nH]c2ccccc2n1-c1ncnc(Nc2ccncn2)n1 [Compound 492] : pIC50 was < 4.83

Short answer for O=c1[nH]c2ccccc2n1-c1ncnc(Nc2cccc3ccccc23)n1 [Compound 683] : pIC50 was < 4.90

Short answer for COC(=O)c1cc(OC)c(OC)cc1Nc1ncnc(-n2c(N)nc3ccccc32)n1 [Compound 476] : pIC50 was < 4.97

* * *

Measured pIC50 accompanies every entry in the list below.
ASSAYED SYSTEM: Zap-70 (Homo sapiens, UniProt P43403)
Construct: Kinases are expressed as either kinase domains or full length constructs; made in house
Sequence (P43403 whole entry, species assumed, the tested form may be a part): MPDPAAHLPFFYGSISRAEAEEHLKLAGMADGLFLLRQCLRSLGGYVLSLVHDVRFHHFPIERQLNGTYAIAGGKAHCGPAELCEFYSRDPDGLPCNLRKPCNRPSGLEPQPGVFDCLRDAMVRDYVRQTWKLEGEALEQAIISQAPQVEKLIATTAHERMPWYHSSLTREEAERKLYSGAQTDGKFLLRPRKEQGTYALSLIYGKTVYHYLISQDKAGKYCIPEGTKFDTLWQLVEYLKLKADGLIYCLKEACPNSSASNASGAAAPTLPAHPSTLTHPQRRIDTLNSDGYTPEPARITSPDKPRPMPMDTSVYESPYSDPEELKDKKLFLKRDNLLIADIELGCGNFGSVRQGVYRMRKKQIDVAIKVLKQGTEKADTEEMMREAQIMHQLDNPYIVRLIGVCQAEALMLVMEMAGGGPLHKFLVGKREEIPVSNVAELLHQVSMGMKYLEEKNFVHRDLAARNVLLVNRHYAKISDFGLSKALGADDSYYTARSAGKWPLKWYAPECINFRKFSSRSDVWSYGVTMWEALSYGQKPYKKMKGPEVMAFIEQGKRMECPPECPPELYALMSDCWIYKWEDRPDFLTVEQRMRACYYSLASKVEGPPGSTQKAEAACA
TEST NAME: Kinase inhibition assay (33P transfer), Zap-70
Type: biochemical
CONDITIONS USED: Table 3, class symbols; read-out: Zap-1
pIC50: −log10 of the molar value.

The following compounds have reported results that may help.
COc1cc(Nc2ncnc(N3CCCc4ccc(Cl)cc43)n2)cc(OC)c1OC [Compound 645] : < 4.98
c1ccc(Nc2ncccc2-c2ncnc(Nc3cccc(Cn4ccnn4)c3)n2)cc1 [Compound 1095] : < 4.97
c1ccc(CNc2ncccc2-c2ncnc(Nc3cccc(Cn4ccnn4)c3)n2)cc1 [Compound 1101] : < 4.99

Short answer for CCN(c1ncnc(Nc2cc(OC)c(OC)c(OC)c2)n1)c1cccc2ccccc12 [Compound 634] : pIC50 was < 4.98

Short answer for Cc1ccc2c(c1)CCCN2c1ncnc(Nc2c(C)ccc3ccccc23)n1 [Compound 854] : pIC50 was < 4.93

* * *

ASSAYED SYSTEM: EGFR (Homo sapiens, UniProt P00533)
Construct: Kinases are expressed as either kinase domains or full length constructs; made in house
Sequence (P00533 25-1210, species assumed): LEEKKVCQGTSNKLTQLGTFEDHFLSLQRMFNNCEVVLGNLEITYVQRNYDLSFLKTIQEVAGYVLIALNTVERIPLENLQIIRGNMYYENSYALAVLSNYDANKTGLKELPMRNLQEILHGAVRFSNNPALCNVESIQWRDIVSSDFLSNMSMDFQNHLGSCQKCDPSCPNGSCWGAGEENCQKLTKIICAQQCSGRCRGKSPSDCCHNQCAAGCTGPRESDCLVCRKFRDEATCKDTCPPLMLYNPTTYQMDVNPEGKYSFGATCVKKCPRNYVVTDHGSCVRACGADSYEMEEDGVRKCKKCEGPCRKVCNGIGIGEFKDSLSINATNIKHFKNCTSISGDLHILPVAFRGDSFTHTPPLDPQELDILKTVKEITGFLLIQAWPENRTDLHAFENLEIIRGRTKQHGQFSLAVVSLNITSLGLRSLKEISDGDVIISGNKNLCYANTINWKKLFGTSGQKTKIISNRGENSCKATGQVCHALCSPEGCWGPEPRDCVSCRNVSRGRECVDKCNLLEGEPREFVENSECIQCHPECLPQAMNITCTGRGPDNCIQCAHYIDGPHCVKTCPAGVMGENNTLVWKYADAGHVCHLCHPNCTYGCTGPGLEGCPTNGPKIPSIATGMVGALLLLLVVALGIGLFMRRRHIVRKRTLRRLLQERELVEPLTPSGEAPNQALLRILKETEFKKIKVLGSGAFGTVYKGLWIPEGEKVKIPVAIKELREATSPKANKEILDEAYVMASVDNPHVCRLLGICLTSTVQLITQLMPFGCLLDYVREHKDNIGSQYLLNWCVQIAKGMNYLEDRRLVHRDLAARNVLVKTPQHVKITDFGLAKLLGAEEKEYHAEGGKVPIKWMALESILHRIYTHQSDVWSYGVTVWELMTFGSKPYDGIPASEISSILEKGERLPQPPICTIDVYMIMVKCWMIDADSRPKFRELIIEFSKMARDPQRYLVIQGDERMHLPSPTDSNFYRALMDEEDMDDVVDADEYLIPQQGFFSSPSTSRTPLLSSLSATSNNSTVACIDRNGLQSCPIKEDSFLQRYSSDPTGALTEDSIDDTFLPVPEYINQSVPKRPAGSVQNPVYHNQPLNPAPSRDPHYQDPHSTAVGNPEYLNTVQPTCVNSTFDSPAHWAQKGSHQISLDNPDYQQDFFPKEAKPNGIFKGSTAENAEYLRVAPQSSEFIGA
TEST NAME: Kinase inhibition assay (33P transfer), EGFR
Type: biochemical
CONDITIONS USED: Table 2, kinase inhibition class; read-out: EGFR-1
Measured IC50 accompanies every entry in the list below.

The following compounds have reported results that may help.
COc1cc(Nc2ncnc(Nc3ccc(C(=O)O)cc3)n2)cc(OC)c1OC : 1.01 to 6.04 µM
COc1cc(Nc2ncnc(-n3c(NC(C)=O)nc4ccccc43)n2)cc(OC)c1OC : > 10.3 µM

Short answer for COc1cc(Nc2ncnc(Nc3ccc(N(C)C)cc3)n2)cc(OC)c1OC : IC50 was 6.05 to 8.83 µM

Short answer for COc1cc(Nc2ncnc(-n3c(Nc4cccc(C)c4)nc4ccccc43)n2)cc(OC)c1OC : IC50 was > 9.31 µM

Short answer for O=c1[nH]c2ccccc2n1-c1ncnc(Nc2cccc(OC(F)(F)F)c2)n1 : IC50 was > 11.6 µM

Short answer for Oc1cccc(Nc2ncnc(-c3ccccc3)n2)c1 : IC50 was > 17 µM

Short answer for COc1cc(Nc2ncnc(Nc3cc(-c4ccco4)n[nH]3)n2)cc(OC)c1OC : IC50 was < 0.977 µM

Short answer for COc1cc(Nc2ncnc(Nc3ccc(C(C)=O)cc3)n2)cc(OC)c1OC : IC50 was 6.07 to 8.85 µM

Short answer for COc1cc(Nc2ncnc(Nc3ccc(C)c(F)c3)n2)cc(OC)c1OC : IC50 was < 1.04 µM
